Overview of recorded DC50 for various compounds
# Measurement Target: TYK2 (Homo sapiens)
# Sequence (P29597 whole entry): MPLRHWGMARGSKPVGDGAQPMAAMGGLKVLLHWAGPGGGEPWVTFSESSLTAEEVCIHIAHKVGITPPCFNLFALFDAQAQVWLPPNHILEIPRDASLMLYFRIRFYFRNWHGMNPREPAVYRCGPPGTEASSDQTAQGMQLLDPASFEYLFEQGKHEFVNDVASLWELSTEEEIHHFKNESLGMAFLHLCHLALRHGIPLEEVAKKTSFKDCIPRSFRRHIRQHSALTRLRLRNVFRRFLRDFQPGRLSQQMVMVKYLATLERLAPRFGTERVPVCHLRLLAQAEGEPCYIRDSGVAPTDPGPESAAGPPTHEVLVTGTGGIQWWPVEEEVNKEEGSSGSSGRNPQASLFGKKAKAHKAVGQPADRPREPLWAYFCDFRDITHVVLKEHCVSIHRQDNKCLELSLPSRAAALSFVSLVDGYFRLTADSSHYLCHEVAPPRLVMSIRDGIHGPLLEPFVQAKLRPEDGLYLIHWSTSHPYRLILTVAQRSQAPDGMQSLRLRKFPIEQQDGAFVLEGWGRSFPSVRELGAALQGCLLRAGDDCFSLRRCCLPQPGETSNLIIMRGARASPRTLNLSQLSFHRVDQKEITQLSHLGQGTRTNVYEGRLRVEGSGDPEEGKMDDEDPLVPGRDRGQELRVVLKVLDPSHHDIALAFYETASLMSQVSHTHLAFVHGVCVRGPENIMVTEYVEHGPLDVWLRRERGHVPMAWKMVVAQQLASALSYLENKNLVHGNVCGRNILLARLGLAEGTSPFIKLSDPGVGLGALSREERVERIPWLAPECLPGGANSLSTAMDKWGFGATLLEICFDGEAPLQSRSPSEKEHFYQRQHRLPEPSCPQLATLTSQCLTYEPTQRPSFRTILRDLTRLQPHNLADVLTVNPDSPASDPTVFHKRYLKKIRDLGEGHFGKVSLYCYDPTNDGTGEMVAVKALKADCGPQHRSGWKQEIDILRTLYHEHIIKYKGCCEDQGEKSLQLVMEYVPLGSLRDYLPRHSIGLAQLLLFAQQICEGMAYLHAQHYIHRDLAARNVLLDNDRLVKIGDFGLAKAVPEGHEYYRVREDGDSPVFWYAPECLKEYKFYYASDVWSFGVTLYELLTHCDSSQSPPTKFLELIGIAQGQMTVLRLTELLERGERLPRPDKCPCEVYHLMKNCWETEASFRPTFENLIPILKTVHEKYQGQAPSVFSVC
# Protocol Description: TYK2 degradation MSD assay in human PBMC cells
# Assay type: cell-based
# Set-up: endogenous in cells; host or cells: human PBMC
# Study Conditions: 4 to 24 hours incubation, read-out: TYK2 MSD DC50 rating in human PBMC

CNc1cc(Nc2cccc(-c3ccc(CN4CCN(c5ccc(-c6ccc7c(c6)n(C)c(=O)n7C6CCC(=O)NC6=O)cc5)CC4)cn3)c2OC)nn2c(C(=O)NC3CC3C)cnc12 (stereo not drawn) ... > 100 nM
CNc1cc(Nc2cccn(-c3ccc(C(=O)N4CCC5(CC4)CC(Cc4ccc6c(c4)n(C)c(=O)n6C4CCC(=O)NC4=O)C5)cn3)c2=O)nn2c(C(=O)N[C@@H]3C[C@@H]3F)cnc12 (stereo partly drawn) ... < 1 nM

Now examine the next entry.
Input line: # return recorded DC50 for entry CNc1cc(Nc2cccc(-c3ccc(CN4CCC(CCc5cccc6c5n(C)c(=O)n6C5CCC(=O)NC5=O)CC4)cn3)c2)nn2c(C(=O)N[C@@H]3C[C@@H]3F)cnc12 (stereo partly drawn)
Output line: > 100 nM
